Record form. Attribute: pEC50. Fill in for each entry.
- System: HCV (Ib) RNA replication
- assay name: Cell-based luciferase reporter HCV (1b) RNA replication assay (replicon cell lines Huh-7 5.2 and ET)
- Parameters: species or system Hepatitis C virus
- run parameters: Hepatitis C virus, Huh-7, 96 h, HCV 1b genotype replicon, luciferase readout, 4 days incubation; read-out: EC50_1b
pEC50: −log10 of the molar value.

input smiles	test result
COC(=O)N[C@H](C(=O)N1CCC[C@H]1c1nc2cc(-c3ccc(-c4ccc5[nH]c([C@@H]6CCCN6C(=O)[C@@H](NC(=O)OC)C(C)C)nc5c4)c(Cl)c3)ccc2[nH]1)C(C)C	≥ 8.30
COC(=O)N(C)[C@H](C(=O)N1C[C@@H](C)C[C@H]1c1nc2cc(-c3ccc(-c4ccc5[nH]c([C@@H]6C[C@H](C)CN6C(=O)[C@@H](Nc6ncccn6)C(C)C)nc5c4)cc3)ccc2[nH]1)C(C)C	≥ 8.30
COC(=O)N(C)[C@H](C(=O)N1CCC[C@H]1c1nc2cc(C#Cc3ccc4nc([C@@H]5CCCN5C(=O)[C@H](C(C)C)N(C)C(=O)OC)[nH]c4c3)ccc2[nH]1)C(C)C	≥ 8.30

Go through the list and state pEC50 for each entry.
1. O=C([C@H]1C[C@@H](O)CN1)N1CCC[C@H]1c1nc2cc(C#Cc3ccc4[nH]c([C@@H]5CCCN5C(=O)[C@H]5C[C@@H](O)CN5)nc4c3)ccc2[nH]1
2. O=C1O[C@@H]2C[C@@H]3C[C@@H]2[C@@H]1[C@H]3C(=O)N1CCC[C@H]1c1nc2cc(-c3ccc(-c4ccc5[nH]c([C@@H]6CCCN6C(=O)[C@H]6[C@H]7C[C@@H]8[C@H]6C(=O)O[C@@H]8C7)nc5c4)cc3)ccc2[nH]1
3. COC(=O)N[C@H](C(=O)N1CCC[C@H]1c1nc2cc(C#Cc3ccc4[nH]c([C@@H]5CCCN5C(=O)[C@H]5CCCO5)nc4c3)ccc2[nH]1)C(C)C
4. CC(C)(C)OC(=O)N1CCCC[C@H]1c1nc2cc(-c3ccc(-c4ccc5nc([C@@H]6CCCCN6C(=O)OC(C)(C)C)[nH]c5c4)s3)ccc2[nH]1
5. COC(=O)N[C@H](C(=O)N1C[C@@H](C(F)F)C[C@H]1c1nc2cc(-c3ccc(-c4ccc5[nH]c([C@@H]6C[C@H](C(F)F)CN6C(=O)[C@@H](NC(=O)OC)C(C)C)nc5c4)cc3)ccc2[nH]1)C(C)C
6. COC(=O)NCCN1CCC[C@H]1c1nc2cc(C#Cc3ccc4[nH]c([C@@H]5CCCN5CCNC(=O)OC)nc4c3)ccc2[nH]1

5.30 to 8.30
5.30 to 8.30
≥ 8.30
5.30 to 8.30
≥ 8.30
5.30 to 8.30

Could you share which pEC50 value was measured for O=C(OCc1ccccc1)N1COC[C@@H]1C(=O)N1CCC[C@H]1c1nc2cc(C#Cc3ccc4[nH]c([C@@H]5CCCN5C(=O)[C@H]5COCN5C(=O)OCc5ccccc5)nc4c3)ccc2[nH]1 ?
≥ 8.30

---

- Test system: HCV (Ib) RNA replication
- assay name: Cell-based luciferase reporter HCV (1b) RNA replication assay (replicon cell lines Huh-7 5.2 and ET)
- Set-up: species or system Hepatitis C virus
- run parameters: Hepatitis C virus, Huh-7, 96 h, HCV 1b genotype replicon, luciferase readout, 4 days incubation; read-out: EC50_1b
pEC50: −log10 of the molar value.
I'd appreciate it if you could supply pEC50 values for the items below.

Would you please look over these solved cases?
compound	test result
COC(=O)N[C@H](C(=O)N1[C@@H]2C[C@@H]2C[C@H]1c1nc2cc(-c3ccc(-c4ccc5[nH]c([C@@H]6C[C@H]7C[C@H]7N6C(=O)[C@@H](NC(=O)OC)C(C)C)nc5c4)cc3)ccc2[nH]1)C(C)C	≥ 8.30
COC(=O)N[C@H](C(=O)N1[C@@H](C)CC[C@H]1c1nc2cc(-c3cc(F)c(-c4ccc5[nH]c([C@@H]6CC[C@H](C)N6C(=O)[C@@H](NC(=O)OC)C(C)C)nc5c4)cc3F)ccc2[nH]1)C(C)C	≥ 8.30
COC(=O)N[C@H](C(=O)N1C[C@@H](C)C[C@H]1c1nc2cc(-c3ccc(-c4ccc5nc([C@@H]6C[C@H](C)CN6C(=O)[C@@H](NC(=O)OC)C(C)C)[nH]c5c4)cc3C(=O)O)ccc2[nH]1)C(C)C	5.30 to 8.30
COC(=O)NC(C(=O)N1CCC[C@H]1c1nc2cc(-c3ccc(-c4ccc5[nH]c([C@@H]6CCCN6C(=O)C(NC(=O)OC)C(C)(C)F)nc5c4)cc3)ccc2[nH]1)C(C)(C)F (stereo partly shown)	≥ 8.30
O=C(OCc1ccccc1)N1CCCC[C@H]1c1nc2cc(C#Cc3ccc4nc([C@@H]5CCCCN5C(=O)OCc5ccccc5)[nH]c4c3)ccc2[nH]1	5.30 to 8.30

// each listed compound needs a value for pEC50
1. O=C(CC1CC1)N1CCC[C@H]1c1nc2cc(C#Cc3ccc4[nH]c([C@@H]5CCCN5C(=O)CC5CC5)nc4c3)ccc2[nH]1
2. COC(=O)N[C@H](C(=O)N1CCC[C@H]1c1nc2cc(-c3ccc(-c4ccc5nc([C@@H]6CCCN6C(=O)[C@@H](NC(=O)OC)C(C)C)[nH]c5c4)cc3C#N)ccc2[nH]1)C(C)C

["5.30 to 8.30", "≥ 8.30"]

---

- System: HCV (Ib) RNA replication
- assay name: Cell-based luciferase reporter HCV (1b) RNA replication assay (replicon cell lines Huh-7 5.2 and ET)
- Parameters: species or system Hepatitis C virus
- run parameters: Hepatitis C virus, Huh-7, 96 h, HCV 1b genotype replicon, luciferase readout, 4 days incubation; read-out: EC50_1b
Hi there, I'd appreciate the recorded EC50 for every entry that follows.

molecule	target or system	EC50
COC(=O)N[C@H](C(=O)N1CCC[C@H]1c1nc2cc(-c3ccc(-c4ccc5nc([C@@H]6CCCN6C(=O)[C@@H](NC(=O)OC)C(C)C)[nH]c5c4)c4ocnc34)ccc2[nH]1)C(C)C [Compound 173]	HCV (Ib) RNA replication	≤ 5 nM

# return EC50 for each item in the list
1. COC(=O)N[C@H](C(=O)N1CCC[C@H]1c1nc2cc(-c3cc4sc(-c5ccc6nc([C@@H]7CCCN7C(=O)[C@@H](NC(=O)OC)C(C)C)[nH]c6c5)cc4s3)ccc2[nH]1)C(C)C [Compound 167]
2. COC[C@H](NC(=O)OC)C(=O)N1CCC[C@H]1c1nc2cc(C#Cc3ccc4nc([C@@H]5CCCN5C(=O)[C@H](COC)NC(=O)OC)[nH]c4c3)ccc2[nH]1 [Compound 71]
3. O=C([C@H]1C[C@H](O)CN1)N1CCC[C@H]1c1nc2cc(C#Cc3ccc4[nH]c([C@@H]5CCCN5C(=O)[C@H]5C[C@H](O)CN5)nc4c3)ccc2[nH]1 [Compound 100]

1: ≤ 5 nM; 2: ≤ 5 nM; 3: > 5000 nM

---

- Tested on: HCV (Ib) RNA replication
- assay name: Cell-based luciferase reporter HCV (1b) RNA replication assay (replicon cell lines Huh-7 5.2 and ET)
- Parameters: species or system Hepatitis C virus
- run parameters: Hepatitis C virus, Huh-7, 96 h, HCV 1b genotype replicon, luciferase readout, 4 days incubation; read-out: EC50_1b
reported metric: EC50

Return reported EC50 values for all items listed beneath this line.
1. COC(=O)N[C@H](C(=O)N1C[C@@H](C)C[C@H]1c1nc2cc(-c3ccc(-c4ccc5[nH]c([C@@H]6C[C@H](C)CN6C(=O)[C@@H](NC(=O)OC)C(C)C)nc5c4)c4nsnc34)ccc2[nH]1)C(C)C
2. COC(=O)N[C@H](C(=O)N1CCC[C@H]1c1nc2cc(-c3ccc(-c4ccc5[nH]c([C@@H]6CCCN6C(=O)[C@@H](NC(=O)OC)C(C)C)nc5c4)c(C)c3C)ccc2[nH]1)C(C)C
3. CC(C)[C@H](NC(=O)N(C)C)C(=O)N1CCC[C@H]1c1nc2cc(C#Cc3ccc4nc([C@@H]5CCCN5C(=O)[C@@H](NC(=O)N(C)C)C(C)C)[nH]c4c3)ccc2[nH]1

≤ 5 nM
≤ 5 nM
≤ 5 nM

---

- Tested on: HCV (Ib) RNA replication
- assay name: Cell-based luciferase reporter HCV (1b) RNA replication assay (replicon cell lines Huh-7 5.2 and ET)
- Design: species or system Hepatitis C virus
- run parameters: Hepatitis C virus, Huh-7, 96 h, HCV 1b genotype replicon, luciferase readout, 4 days incubation; read-out: EC50_1b
pEC50: −log10 of the molar value.
reported metric: pEC50

# annotated cases, reported pEC50 shown
compound	pEC50
COC(=O)N[C@H](C(=O)N1CCC[C@H]1c1nc2cc(-c3ccc(-c4ccc5[nH]c([C@@H]6CCCN6C(=O)[C@@H](NC(=O)OC)[C@@H](C)OC)nc5c4)cc3)ccc2[nH]1)C(C)C [Compound 208]	≥ 8.30
CC[C@@H]1CC[C@@H](c2nc3cc(-c4ccc(-c5ccc6nc([C@@H]7CC[C@@H](CC)N7C(=O)[C@@H](NC(=O)OC)C(C)C)[nH]c6c5)cc4)ccc3[nH]2)N1C(=O)[C@@H](NC(=O)OC)C(C)C [Compound 24]	≥ 8.30
Cc1cc(-c2ccc3[nH]c([C@@H]4CCCN4C(=O)[C@@H](NC(=O)O[C@H]4CCOC4)C(C)C)nc3c2)sc1-c1ccc2[nH]c([C@@H]3CCCN3C(=O)[C@@H](NC(=O)O[C@H]3CCOC3)C(C)C)nc2c1 [Compound 156]	5.30 to 8.30

Record pEC50 for all entries; do not skip any.
1. COC(=O)N[C@H](C(=O)N1C[C@@H](C)C[C@H]1c1nc2cc(-c3ccc(-c4ccc5nc([C@@H]6CCCN6C(=O)[C@@H](NC(=O)OC)C(C)C)n(C)c5c4)cc3)ccc2[nH]1)C(C)C [Compound 271]
2. COC(=O)N[C@H](C(=O)N1CCC[C@@]1(C)c1nc2cc(-c3ccc(-c4ccc5[nH]c([C@]6(C)CCCN6C(=O)[C@@H](NC(=O)OC)C(C)C)nc5c4)cc3)ccc2[nH]1)C(C)C [Compound 249]
3. COC(=O)N[C@H](C(=O)N1CCC[C@H]1c1nc2cc(C#Cc3ccc4nc([C@@H]5CCCN5C(=O)NC(C)C)[nH]c4c3)ccc2[nH]1)C(C)C [Compound 122]
4. O=C1CC[C@H](C(=O)N2CCC[C@H]2c2nc3cc(C#Cc4ccc5[nH]c([C@@H]6CCCN6C(=O)[C@H]6CCC(=O)N6)nc5c4)ccc3[nH]2)N1 [Compound 86]
5. COC(=O)N[C@H](C(=O)N1C[C@@H](C)C[C@H]1c1nc2ccc(-c3ccc(-c4ccc5nc([C@@H]6C[C@H](C)CN6C(=O)[C@@H](NC(=O)OC)C(C)C)n(C)c5c4)cc3)cc2[nH]1)C(C)C [Compound 294]
6. O=C1CCCCCN1CC(=O)N1CCC[C@H]1c1nc2cc(C#Cc3ccc4[nH]c([C@@H]5CCCN5C(=O)CN5CCCCCC5=O)nc4c3)ccc2[nH]1 [Compound 80]
7. COC(=O)N[C@H](C(=O)N1CCC[C@H]1c1nc2ccc(-c3cn(-c4ccc5nc([C@@H]6CCCN6C(=O)[C@@H](NC(=O)OC)C(C)C)[nH]c5c4)nn3)cc2[nH]1)C(C)C [Compound 21]

1. ≥ 8.30
2. ≥ 8.30
3. ≥ 8.30
4. < 5.30
5. ≥ 8.30
6. < 5.30
7. ≥ 8.30
